target: hGLP1R (Homo sapiens); construct: expressed in transfected cells; host or cells: HEK-293 cells carrying a CRE-luciferase reporter gene; assay: hGLP1R CreLuc reporter gene assay in 0.5% and 100% plasma; assay type: cell-based; settings: CreLuc reporter gene assay, 100% human plasma; read-out: hGLP1R 100% hP
Sequence (P43220 24-463): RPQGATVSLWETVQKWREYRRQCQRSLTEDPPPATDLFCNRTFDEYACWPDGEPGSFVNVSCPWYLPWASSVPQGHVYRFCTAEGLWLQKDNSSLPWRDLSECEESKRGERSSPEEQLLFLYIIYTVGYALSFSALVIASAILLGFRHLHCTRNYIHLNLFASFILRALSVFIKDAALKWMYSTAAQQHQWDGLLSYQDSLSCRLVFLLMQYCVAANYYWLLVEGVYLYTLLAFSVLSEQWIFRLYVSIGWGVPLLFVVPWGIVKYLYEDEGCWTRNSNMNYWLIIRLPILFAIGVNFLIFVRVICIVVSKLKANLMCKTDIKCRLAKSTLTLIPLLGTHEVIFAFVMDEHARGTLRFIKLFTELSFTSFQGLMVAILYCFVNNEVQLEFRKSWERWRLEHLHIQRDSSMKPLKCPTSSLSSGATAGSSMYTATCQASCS
Starred links: 1 amine or outer side, 2 acyl side, 3 side chain; linkers in the order of their positions; H or OH if unused. Positions of bridges follow the written chain, without caps; N, C: chain ends. Non-standard residues stand in square brackets, D forms with d. Groups on a side chain read outwards from the residue. Chains are numbered I, II in the order given. *: point of attachment. C20 diacid = O=C(O)CCCCCCCCCCCCCCCCCCC(=O)*; C18 diacid = O=C(O)CCCCCCCCCCCCCCCCC(=O)*; γGlu = O=C(O)[C@H](CCC(=O)[*:2])N[*:1]; εLys = N[C@@H](CCCCN[*:1])C(=O)[*:2]; Aib = CC(C)(N)C(=O)O
Documented pEC50 across a set of substances
Just the number, please; pEC50 means minus log10 of the concentration in mol/L.

I: H-Y[Aib]EGTFTSDYSI[Aib]LEKQAQ[Aib]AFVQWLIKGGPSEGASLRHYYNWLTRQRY-NH2 / II: {C18 diacid}-EEEEEE (amide I:28-II:C) [Compound 264]    8.40
H-Y[Aib]EGTFTSDYSI[Aib]LEKQAE[Aib]AFVQWLIK([εLys-γGlu-γGlu-γGlu-γGlu-C18 diacid])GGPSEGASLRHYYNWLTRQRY-NH2 [Compound 174]    8.11

// returns reported pEC50 for input H-Y[Aib]EGTFTSDYSI[Aib]LEKQAQ[Aib]AFVEWLIK([εLys-γGlu-γGlu-γGlu-γGlu-γGlu-γGlu-C20 diacid])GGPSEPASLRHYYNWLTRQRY-NH2 [Compound 233] 8.77
